experiment: Mouse liver microsome stability / intrinsic clearance; format: in vitro ADME
ENDPOINT LABEL: Mouse liver microsome stability

INSERT INTO measurements (compound, reported_result) VALUES
  ('Fc1cc(COC2CCN(Cc3ncc4ccccn34)CC2)ccc1Cl [Compound 9e]', 'not as stable'),
  ('Fc1cccc(COC2CCN(Cc3cn4ccccc4n3)CC2)c1 [Compound 9a]', 'modestly stable'),
  ('Fc1cccc(COC2CCN(Cc3ncn4ccccc34)CC2)c1 [Compound 9h]', 'not as stable'),
  ('Fc1ccc(COC2CCN(Cc3cn4ccccc4n3)CC2)cc1F [Compound 9b]', 'modestly stable');

###

test: In vivo rat cassette PK; conditions: iv, 0.25 mg/kg
ENDPOINT LABEL: clearance (mL/min/kg)

INSERT INTO assay_data (compound, reported_result) VALUES
  ('Cc1c(Cl)cccc1NC(=O)CN1CCC(OCc2ccc(F)c(F)c2)CC1 [Compound 11a]', 22),
  ('Cn1ncc2cc(CN3CCC(OCc4ccc(F)c(F)c4)CC3)ccc21', 140);

1 = Fc1cc(COC2CCN(Cc3ccc4[nH]cnc4c3)CC2)ccc1Cl
2 = Cn1cnc2cc(CN3CCC(OCc4cccc(C(F)(F)F)c4)CC3)ccc21
Challenge: Between the two listed entries 1 and 2 , which has its clearance at the higher number? Write the label of whichever entry you select.
Response given: 1

P = Fc1ccc(COC2CCN(Cc3ccc4[nH]cnc4c3)CC2)cc1F
Q = Fc1ccc(COC2CCN(Cc3cn4ccccc4n3)CC2)cc1F
Challenge: Given P and given Q , which shows the smaller recorded clearance? Refer to your chosen entry by its label in the reply.
Response given: Q

Values compiled from paper PMC8966054.
